These measurements were taken from patent US20220056091A1.

In this section we review reported kon values for a set of binders.
Target: T1, Fc fused human IL-18BP isoform a (IL-18BPa) (human, UniProt O95998 31-194)
T1 construct: also called IL-18BP monomer; not shown: Fc part
T1 sequence (looked up): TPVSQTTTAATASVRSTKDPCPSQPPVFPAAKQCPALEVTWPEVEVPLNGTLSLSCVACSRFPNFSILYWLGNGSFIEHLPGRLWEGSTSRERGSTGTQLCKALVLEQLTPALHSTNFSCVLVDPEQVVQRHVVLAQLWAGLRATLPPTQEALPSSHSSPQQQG
Test: SPR, Fc-IL-18BPa captured, 1:1 model
Number in M⁻¹ s⁻¹, nothing else.

Modified IL-18 polypeptide of SEQ ID NO: 10 (E06K, K53A, S55A, T63A) (ligand) YFGKLKSKLSVIRNLNDQVLFIDQGNRPLFEDMTDSDCRDNAPRTIFIISMYADAQPRGMAVAISVKCEKISTLSCENKIISFKEMNPPDNIKDTKSDIIFFQRSVPGHDNKMQFESSSYEGYFLACEKERDLFKLILKKEDELGDRSIMFTVQNED ... 370000
Modified IL-18 polypeptide of SEQ ID NO: 22 (E06K, K53A, C38S, C68S, C76S, C127S, K70C) (ligand) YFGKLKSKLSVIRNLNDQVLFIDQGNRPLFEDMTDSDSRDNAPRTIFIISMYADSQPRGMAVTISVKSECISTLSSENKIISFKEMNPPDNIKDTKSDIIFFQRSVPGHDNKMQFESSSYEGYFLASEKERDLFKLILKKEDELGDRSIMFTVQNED ... 101000
Modified IL-18 polypeptide of SEQ ID NO: 23 (K53A, T63A, C38S, C68S, C76S, C127S, K70C) (ligand) YFGKLESKLSVIRNLNDQVLFIDQGNRPLFEDMTDSDSRDNAPRTIFIISMYADSQPRGMAVAISVKSECISTLSSENKIISFKEMNPPDNIKDTKSDIIFFQRSVPGHDNKMQFESSSYEGYFLASEKERDLFKLILKKEDELGDRSIMFTVQNED ... 22400

Item under review: Modified IL-18 polypeptide of SEQ ID NO: 16 (C38S, C68S, C76S, C127S, K70C) (ligand) YFGKLESKLSVIRNLNDQVLFIDQGNRPLFEDMTDSDSRDNAPRTIFIISMYKDSQPRGMAVTISVKSECISTLSSENKIISFKEMNPPDNIKDTKSDIIFFQRSVPGHDNKMQFESSSYEGYFLASEKERDLFKLILKKEDELGDRSIMFTVQNED . Reported kon? 708000

Which kon is reported for this binder? Modified IL-18 polypeptide of SEQ ID NO: 15 (C38S, C68S, C76S, C127S) (ligand) YFGKLESKLSVIRNLNDQVLFIDQGNRPLFEDMTDSDSRDNAPRTIFIISMYKDSQPRGMAVTISVKSEKISTLSSENKIISFKEMNPPDNIKDTKSDIIFFQRSVPGHDNKMQFESSSYEGYFLASEKERDLFKLILKKEDELGDRSIMFTVQNED 1.27e+06

Consider the binder shown here: Modified IL-18 polypeptide of SEQ ID NO: 70 (E6K, K53A, C38S, C76S, C127S) (ligand) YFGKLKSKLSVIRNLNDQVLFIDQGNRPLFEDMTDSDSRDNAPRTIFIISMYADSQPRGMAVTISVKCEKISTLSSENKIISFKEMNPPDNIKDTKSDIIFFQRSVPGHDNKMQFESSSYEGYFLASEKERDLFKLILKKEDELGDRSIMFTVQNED What is its recorded kon? 128000

Consider the binder Modified IL-18 polypeptide of SEQ ID NO: 71 with a 30 kDa PEG attached at residue C68 (E6K, C38S, K53A, C68-30kDPEG) (ligand, 30 kDa PEG on Cys 68 (30 kDa DBCO-polyethylene glycol clicked to a bromoacetamido-PEG5-azide linker on the cysteine), also called 71 + PEG) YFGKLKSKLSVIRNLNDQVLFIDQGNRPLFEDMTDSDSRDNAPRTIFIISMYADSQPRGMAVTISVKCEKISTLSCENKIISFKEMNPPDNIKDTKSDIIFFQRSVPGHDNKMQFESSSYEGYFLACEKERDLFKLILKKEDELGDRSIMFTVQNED and give its measured kon. 158000
